molecular target: GDP-bound KRAS wild-type protein (Homo sapiens); test: Binding to KRAS by surface plasmon resonance (SPR), Single Cycle Kinetics; conditions: SPR, Single Cycle Kinetics, GDP-bound KRAS wild-type protein; read-out: KRAS KD
Sequence (P01116 whole entry): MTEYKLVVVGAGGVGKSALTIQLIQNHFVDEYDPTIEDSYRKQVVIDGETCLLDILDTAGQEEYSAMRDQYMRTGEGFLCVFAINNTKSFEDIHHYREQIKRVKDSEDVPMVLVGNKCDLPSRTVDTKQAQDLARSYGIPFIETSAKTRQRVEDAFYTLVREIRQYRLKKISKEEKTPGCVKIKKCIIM
readout_label: Kd (nM)
Give bare numbers, in nM.

For orientation, consider the following solved cases.
{"columns": ["smiles_notation", "Kd, nM"],
 "data": [
  ["CCC[C@H]1C(=O)N[C@@H]([C@@H](C)CC)C(=O)N2CCC[C@H]2C(=O)N(C)[C@H]2C/C=C\\CCN(C2=O)[C@@H](CC2CCC(F)(F)CC2)C(=O)N(C)CC(=O)N[C@@H](CCc2ccc(C(F)(F)F)c(OC)c2)C(=O)N2C[C@H](OCC)C[C@H]2C(=O)N(C)C2(CCC2)C(=O)N(C)[C@@H](C(CC)CC)C(=O)N(C)[C@H](C(=O)N(C)C)CC(=O)N1C", 4.1],
  ["CCO[C@@H]1C[C@H]2C(=O)NC3(CC(C)(C)C3)C(=O)N(C)[C@@H](C3CCCC3)C(=O)N(C)[C@H](C(=O)N(C)C)CC(=O)N(C)[C@H]3CCCC/C=C/c4ccc(cc4)C[C@@H](C(=O)N(C)CC(=O)N[C@@H](CCc4ccc(C(F)(F)F)c(OC)c4)C(=O)N2C1)N1CC/C=C\\C[C@@H](C1=O)N(C)C(=O)CN(C)C(=O)[C@H]([C@@H](C)CC)NC3=O", 0.04]
]}

Please examine the following record next.
Challenge: Give its Kd value. Item: CCO[C@@H]1C[C@H]2C(=O)NC3(CC(C)(C)C3)C(=O)N(C)[C@@H](C3CCCC3)C(=O)N(C)[C@H](C(=O)N(C)C)CC(=O)N(C)[C@@H](C)C(=O)N[C@@H]([C@@H](C)CC)C(=O)N(C)CC(=O)N(C)[C@H]3C/C=C\CCN(C3=O)[C@@H](Cc3ccc(C(F)(F)F)cc3)C(=O)N(C)CC(=O)N[C@@H](CCc3cc(F)c(C(F)(F)F)c(F)c3)C(=O)N2C1
Response given: 0.098
